Test system: SN12C renal
Assay: NCI tumour cell line growth inhibition, 48 h; in the data active = GI50 below about 0.43 µM; inactive = the rest
Permitted responses: active, inactive

Tell me the assay call for `COc1ccc(-c2nnc(N3CCN(C(=O)CN4CCN(c5ccc(Cl)cc5)CC4)CC3)nc2-c2ccc(OC)cc2)cc1` please.
inactive

Tell me the assay call for `Cc1cc(C)cc(Nc2ccc([N+](=O)[O-])c(NCCN3CCOCC3)n2)c1` please.
active

Tell me the assay call for C[C@]12C3CC[C@@]4(CO)C[C@]3(CCC1[C@](C)(C(=O)O)CC[C@@H]2O)CC4=O (stereo not given in full) please.
inactive

Tell me the assay call for `Cc1cc(C)n(C(=O)c2nn(-c3ccc(Cl)cc3)cc2O)n1` please.
inactive

Tell me the assay call for `CS(=O)(=O)CCn1c(=O)c(Oc2ccc(F)cc2F)cc2cnc(NC3CCOCC3)nc21` please.
inactive

* * *

System: MDA-MB-435
Permitted responses: yes (1) for active, no (0) for inactive

Tell me the assay call for `C/C1=C/C(=O)O[C@@H]2C[C@@H](CC[C@H](C)/C=C\C=C\CC1)O[C@@](OCCc1ccccc1)([C@@H]1CSC(=O)N1)C2` please.
yes (1)

* * *

Tested on: HL-60(TB) leukemia
Experiment: NCI tumour cell line growth inhibition, 48 h
Measurement type: TGI

Before answering, review these 4 worked examples.
INSERT INTO measurements (molecule, measurement_type, result) VALUES
  ('O=C(Nc1ccccc1O)c1ccc(CNC(=O)c2sccc2Nc2ccnc(C(F)(F)F)c2)cc1', 'TGI', '44.8 µM'),
  ('Cn1nc2ccc3nccc(N(CCO)CCO)c3c2n1', 'TGI', '> 100 µM'),
  ('COc1cc2ccc1OCc1cccc(n1)COc1ccc(cc1OC)C=Nc1ccc(cc1)-c1ccc(cc1)N=C2', 'TGI', '> 100 µM'),
  ('Nc1ccc2ccc(NS(=O)(=O)N3CCCCC3)cc2c1', 'TGI', '> 100 µM');

List the reported TGI of each molecule below.
1. O=C1/C(=C\c2ccc(F)cc2)CCOc2c1ccc1ccccc21
2. c1cc[c]([Sn]([S]c2cccc3cccnc23)([S]c2cccc3cccnc23)[c]2ccccc2)cc1
3. Cc1ccc(C2C3=C(N=c4s/c(=C/c5ccc(Br)cc5)c(=O)n42)c2ccc4ccccc4c2OCC3)cc1 (stereo not given)

1: > 72.4 µM; 2: 0.563 µM; 3: > 100 µM

List the reported TGI of each molecule below.
1. C#C[C@H](CCCC)OC(=O)N[C@H](C)c1ccccc1
2. CC(C)(C)[Si](C)(C)OCC1OC(n2cnc3c(N)ncnc32)CC1OS(C)(=O)=O (stereo not given)
3. COC(=O)C[C@H](COCc1ccccc1)NC(=O)C[C@H](COCc1ccccc1)NC(=O)OC(C)(C)C

["40.7 µM", "> 100 µM", "> 100 µM"]

* * *

Test system: 786-0 renal
Assay: NCI tumour cell line growth inhibition, 48 h
Task for the reader: assign each of the following molecules its reported TGI.
Answers are plain numbers, in µM.

INSERT INTO results (molecule, unit_annotation, quantitative_readout) VALUES
  ('O=[N+]([O-])C(=C(Nc1ccccc1)Nc1ccccc1)/C(Cl)=C(\Cl)Br', 'µM', 31.2),
  ('CCCCCCNc1nc(N2CCOCC2)c2[nH]c(NCCCCCC)nc2n1', 'µM', 3.19);

List the reported TGI of each molecule below.
1. C=C1CC2(CCCC3(CC(=C)C(=O)O3)C2(C)C)OC1=O (stereo not drawn)
2. O=C(Cn1c2ccc(Br)cc2c2nc3ccccc3nc21)N/N=C/c1ccccc1
3. COc1ccc(C(=O)N(C(=O)N2CCN(c3ccccc3)CC2)S(=O)(=O)c2ccccc2)cc1
4. O=S(=O)(NCCNc1cc(-c2cn(-c3ccccc3)nc2-c2cccc(O)c2)ccn1)c1ccc(Cl)cc1
5. Cc1cc(C)c2c(SCc3ccc(Cl)cc3Cl)nc(N)nc2n1
6. COc1ccc(/C=C(/C)[N+](=O)[O-])cc1

[11.4, 94.8, 90.5, 9.78, 41.8, 2.51]

* * *

System: SF-539 CNS
Experiment: NCI tumour cell line growth inhibition, 48 h
Measurement type: log10(TGI) (log10 of the value in µM)
Note: values are log10 of TGI expressed in µM.

INSERT INTO measurements (compound, measured_on, quantitative_readout) VALUES
  ('Cc1cccc2c1O/C(=C\c1ccc([N+](=O)[O-])o1)C2=O', 'SF-539 CNS', 0.51),
  ('C=CCC(N[C@H](CO)c1ccccc1)c1cn(S(=O)(=O)c2ccc(C)cc2)c2ccccc12 (some centres undefined)', 'SF-539 CNS', 1.58),
  ('COc1ccc(CC(NC(=O)[C@H](C)NC(=O)CN2CCOCC2)C(=O)N[C@@H](Cc2ccccc2)C(=O)[C@@]2(C)CO2)cc1 (some centres undefined)', 'SF-539 CNS', -0.23),
  ('CCCSc1ccc2[nH]c(N3C(=O)/C(=C/c4cc(OC)c(OC)c(OC)c4)N=C3c3ccccc3)cc2c1', 'SF-539 CNS', 1.37),
  ('c1cc(-c2cn[nH]c2)cc(-c2cn[nH]c2)c1', 'SF-539 CNS', 1.74),
  ('C#C[C@]1(O)CC[C@H]2[C@@H]3CCC4=C/C(=N\OCCN(CC)CC)CC[C@]4(C)[C@H]3CC[C@@]21C', 'SF-539 CNS', 1.00);

List the reported log10(TGI) of each compound below.
1. O=C1c2ccn(CCCCN3CCCCC3)c2C(=O)c2c1c(O)c1ccccc1c2O
2. O=[N+]([O-])[O-].O=[N+]([O-])[O-].[Au].[Au].c1ccc([P-]c2ccccc2)cc1.c1ccc([P-]c2ccccc2)cc1
3. O=[N+]([O-])c1ccc(/C=C(/c2ccc([N+](=O)[O-])o2)S(=O)(=O)c2ccccc2)o1

1.62
1.89
1.58

* * *

Test system: RPMI-8226 leukemia
Assay: NCI tumour cell line growth inhibition, 48 h
Measurement type: TGI

Before answering, review these 10 worked examples.
INSERT INTO assay_data (compound, measurement_type, result) VALUES
  ('O=[N+]([O-])c1ccc2c(c1)nc(Cc1ccc(Cl)cc1)n2C[C@@H]1CCCN2CCCCC12 (stereo partly drawn)', 'TGI', '> 100 µM'),
  ('CCc1cccc(CC)c1NC(=O)C1=C(C)NC(C)=C(C(=O)Nc2c(CC)cccc2CC)C1c1ccc2c(c1)OCO2', 'TGI', '> 100 µM'),
  ('CNC(=O)OC1C(O[C@H]2C[C@H]3[C@@H]4CC=C5C[C@@H](O)CC[C@]5(C)[C@H]4CC[C@]3(C)[C@H]2[C@H](C)C(=O)CCC(C)C)OCC(O)C1OC1OCC(O)C(O)C1OC(=O)c1ccc(OC)cc1 (stereo partly drawn)', 'TGI', '0.0112 µM'),
  ('CC(C)C1OC(=O)/C=C/C=C/C=C/C=C/C=C/CC(O)C(C)C(O)CC(O)CC(O)CC(O)CC(O)CC(O)CC(O)/C=C/C1C (stereo not drawn)', 'TGI', '> 100 µM'),
  ('COc1cc2c(c(OC)c1OC)C(=O)[C@H](Br)[C@H]2NC(=O)NCCCl', 'TGI', '> 100 µM'),
  ('COc1ccc(NS(=O)c2ccccc2OC)cc1 (stereo not drawn)', 'TGI', '> 100 µM'),
  ('CN(C)CC1(Cc2ccccc2)CCC(Cc2ccccc2)C1=O (stereo not drawn)', 'TGI', '6.84 µM'),
  ('CNC(=O)CNC(=O)C(Cc1ccc(NC(=O)CCCCC(C)=O)cc1)NC(=O)C(CCC(=O)OCc1ccccc1)NC(=O)OC(C)(C)C (stereo not drawn)', 'TGI', '> 100 µM'),
  ('O=C(CNc1ncco1)Nc1ccc(S(=O)(=O)c2ccc(NC(=O)CNc3ncco3)cc2)cc1', 'TGI', '3.01 µM'),
  ('Cc1cc(N(CCC#N)CCC#N)ccc1N=Nc1cccc(Cl)c1', 'TGI', '> 100 µM');

List the reported TGI of each compound below.
1. CN1CCN(CCNc2ccc(CO)c3sc4ccccc4c(=O)c23)CC1
2. O=C1CC(c2ccc(Cl)cc2)C2(C(=O)NC(=O)NC2=O)C(c2ccc(Cl)cc2)C1 (stereo not drawn)
3. CCCCCCCCCCCCCCCC(=O)OC(COC(C)=O)CO[P+](=O)O (stereo not drawn)
4. Cn1c2ccccc2c2nc3ccccc3c(Cl)c21
5. COC1C(O)C(C)OC(OC2CC3CCC4C(CCC5(C)C(C6=CC(=O)OC6)CCC45O)C3(O)C(OC(C)=O)C2)C1O (stereo not drawn)

1. 23.4 µM
2. 32.6 µM
3. > 100 µM
4. > 100 µM
5. 7.55 µM

List the reported TGI of each compound below.
1. CCc1c(O)c2c(c(O)c1C(C)=O)C(=O)c1c(cc(O)c(C(=O)O)c1C(=O)O)C2=O
2. COc1cc(-c2cc(/C=C3\C(=O)Nc4ccccc43)[nH]n2)cc(OC)c1OC
3. O=c1c2ccccc2[nH]c(=S)n1-c1ccc(N=Nc2cccc3cc(O)ccc23)cc1

["> 100 µM", "4.37 µM", "> 100 µM"]
